Test system: HL-60(TB) leukemia
Assay: NCI-60 one-dose screen, 48 h (100 = growth as untreated, 0 = no growth, -100 = all killed)
Conditions: 10 µM unless noted
This is part of a sample that, as a whole, favours compounds with a hit. Of some 83,000 tested, about 20% had one in any assay.
# class assignment by measured growth: 1: < 30%; 2: ≥ 30% and < 90%; 3: ≥ 90%

Task item: Sort Clc1ncnc2scc(C3COc4ccccc4O3)c12 (stereo unspecified) into one of the categories.
Reply: 3

Task item: Sort `O=c1oc2ccccc2cc1-c1csc(N/N=C/c2cc3ccccc3nc2Cl)n1` into one of the categories.
Reply: 3

Task item: Sort `Nc1nc(Nc2cccc(F)c2)nc2ccccc12` into one of the categories.
Reply: 1

Task item: Sort `O=C1OC(c2ccc(-c3ccccc3)cc2)=C/C1=C/c1c(Cl)cccc1Cl` into one of the categories.
Reply: 2

Task item: Sort Nc1ncnc2c1c(C(=O)NO)cn2C1OC(CO)C(O)C1O (stereo unspecified) into one of the categories.
Reply: 1

Task item: Sort CNc1nc(S(=O)c2ccc(C#N)cc2)nc2ccccc12 (stereo unspecified) into one of the categories.
Reply: 2

Task item: Sort `c1ccc(-n2nnnc2-c2cccc3ccccc23)cc1` into one of the categories.
Reply: 1

Task item: Sort `COc1ccc(-c2nc(SCCC(C)C)nc(N/N=C(/C)c3ccc(N)cc3)c2C#N)cc1` into one of the categories.
Reply: 2

Task item: Sort CN1CCN(/C=C2\CC(C(=O)NCc3ccc(Cl)cc3Cl)NC2=O)CC1 (stereo unspecified) into one of the categories.
Reply: 3

Task item: Sort `CN(C)CCCNC(=O)c1cncnc1Nc1ccc(OCc2cccc(F)c2)c(Cl)c1` into one of the categories.
Reply: 1

Task item: Sort `COc1ccc(-c2[nH]nc(N)c2-c2cc(OC)c3c(c2)OCO3)cc1` into one of the categories.
Reply: 1

Task item: Sort CC12CCC(O)CC1=CCC1C2CCC2(C)C3=NN=CC3CC12 (stereo unspecified) into one of the categories.
Reply: 3

Task item: Sort C=C1c2c(C)nn(-c3ccc(S(N)(=O)=O)cc3)c2N(C)C23CC1C1(C)c4c(C)nn(-c5ccc(S(N)(=O)=O)cc5)c4N(C)C(C)(CC12)C3 (stereo unspecified) into one of the categories.
Reply: 1

Task item: Sort `O=c1nc2n(nc1/C=C/c1ccco1)CC(c1ccc(Cl)cc1)=NN2` into one of the categories.
Reply: 2

Task item: Sort COc1ccc(C2CC(c3cnccn3)=NN2)cc1OC (stereo unspecified) into one of the categories.
Reply: 2

Task item: Sort `COc1cc2c(c(O)c1Cl)C(=O)c1c(O)cc(C[C@H](C)O)cc1[C@H]2[C@H]1c2cc(C[C@H](C)O)cc(O)c2C(=O)c2c1cc(OC)c(Cl)c2O` into one of the categories.
Reply: 1

Task item: Sort `CCCCNC(=O)Oc1ccc(/C(=C(/CC)Cc2ccccc2)c2ccc(OCCCN(C)C)cc2)cc1` into one of the categories.
Reply: 2

* * *

Test system: A498 renal
Assay: NCI-60 one-dose screen, 48 h (100 = growth as untreated, 0 = no growth, -100 = all killed)
Details: 10 µM unless noted
Compounds without any hit were thinned out: in the full panel of roughly 83,000, 20% have a hit.
Give measured growth for each item. Keep answers brief.
# value in %; strip the unit string

response.value for `COc1ccc(CN2CCN(Cc3ccccc3)CC2)c(O)c1` (field: growth) = 95.5

response.value for `COc1ccc(/C=C(/C(=O)N2CCCC2)c2cc(OC)c(OC)c(OC)c2)cc1N` (field: growth) = -0.924

response.value for `C[C@@H]1CC[C@@H]2[C@@H]1[C@H](OC(=O)/C=C/C1CCCCC1)[C@]1(C3CCCCC3)C[C@@H](OC(=O)CO)[C@@]2(C)O1` (field: growth) = -83.3

response.value for `n1nc(-c2nonc2-c2nn[nH]n2)n[nH]1` (field: growth) = 81.9

response.value for CC(N)Cc1ccc(O)cc1 (centres undefined) (field: growth) = 80.7

response.value for `CCN1CC2(CN(CC)C1=S)C(=O)NC(=O)NC2=O` (field: growth) = 112

response.value for `CC1(C)N=C(N)N=C(N)N1c1ccc(OCCCCNC(=O)c2ccc(S(=O)(=O)F)cc2)c(Cl)c1` (field: growth) = 105

response.value for `C/C(=C\c1cc(C(F)(F)F)n(-c2ccc(N)cc2)n1)[C@@H]1C[C@@H]2O[C@]2(C)CCC[C@H](C)[C@H](O)[C@@H](C)C(=O)C(C)(C)[C@@H](O)CC(=O)O1` (field: growth) = -0.114

response.value for COc1c(O)c2c3c(c1OC)-c1ccccc1CC3N(C)CC2 (centres undefined) (field: growth) = 116
